# target under test: HIV-1 JR-CSF Env N295A (HIV-1 JR-CSF) (UniProt P20871)
# run description: cell-based or functional assay
For each record, write down the corresponding Fold IC50 increase relative to wild-type.
Entry rule: numbers only, all in fold.

I would be grateful if you could share the reported Fold IC50 increase relative to wild-type for PGT-131 (antibody, V domains shown) VH: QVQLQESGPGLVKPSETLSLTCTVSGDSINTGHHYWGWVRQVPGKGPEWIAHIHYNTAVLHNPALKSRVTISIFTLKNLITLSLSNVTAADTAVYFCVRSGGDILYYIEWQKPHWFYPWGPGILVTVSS VL: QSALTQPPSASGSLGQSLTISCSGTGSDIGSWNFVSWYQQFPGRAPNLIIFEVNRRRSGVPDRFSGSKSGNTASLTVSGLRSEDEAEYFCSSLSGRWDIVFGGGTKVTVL . 2.1

And for PGT-125 (antibody, V domains shown) VH: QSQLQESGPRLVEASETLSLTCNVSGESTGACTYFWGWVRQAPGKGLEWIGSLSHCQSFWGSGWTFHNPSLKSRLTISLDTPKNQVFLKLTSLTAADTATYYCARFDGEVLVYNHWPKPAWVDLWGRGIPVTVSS VL: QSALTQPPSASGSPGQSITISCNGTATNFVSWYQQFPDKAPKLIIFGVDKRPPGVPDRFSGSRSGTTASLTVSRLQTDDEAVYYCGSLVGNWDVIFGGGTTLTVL ? 0.8

Then what about the binder PGT-123 (antibody, V domains shown) VH: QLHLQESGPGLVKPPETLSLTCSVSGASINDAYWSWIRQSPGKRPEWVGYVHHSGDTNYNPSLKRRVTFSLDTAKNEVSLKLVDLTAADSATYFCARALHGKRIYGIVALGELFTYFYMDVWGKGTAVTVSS VL: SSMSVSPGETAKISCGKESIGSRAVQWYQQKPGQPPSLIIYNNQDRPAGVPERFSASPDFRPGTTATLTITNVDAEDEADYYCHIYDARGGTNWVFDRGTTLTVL ? 1.2

Query PGT-128 (antibody, V domains shown) VH: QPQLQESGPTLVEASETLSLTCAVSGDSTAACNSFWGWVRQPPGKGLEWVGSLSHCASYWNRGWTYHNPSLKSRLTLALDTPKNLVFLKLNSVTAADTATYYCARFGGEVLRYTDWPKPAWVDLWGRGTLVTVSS VL: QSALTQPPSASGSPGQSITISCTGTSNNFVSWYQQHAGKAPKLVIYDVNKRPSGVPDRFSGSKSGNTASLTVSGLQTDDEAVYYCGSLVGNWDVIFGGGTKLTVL next 1
